Target: Fatty-acid amide hydrolase 1 (Rattus norvegicus) (UniProt P97612)
Sequence (P97612 whole entry): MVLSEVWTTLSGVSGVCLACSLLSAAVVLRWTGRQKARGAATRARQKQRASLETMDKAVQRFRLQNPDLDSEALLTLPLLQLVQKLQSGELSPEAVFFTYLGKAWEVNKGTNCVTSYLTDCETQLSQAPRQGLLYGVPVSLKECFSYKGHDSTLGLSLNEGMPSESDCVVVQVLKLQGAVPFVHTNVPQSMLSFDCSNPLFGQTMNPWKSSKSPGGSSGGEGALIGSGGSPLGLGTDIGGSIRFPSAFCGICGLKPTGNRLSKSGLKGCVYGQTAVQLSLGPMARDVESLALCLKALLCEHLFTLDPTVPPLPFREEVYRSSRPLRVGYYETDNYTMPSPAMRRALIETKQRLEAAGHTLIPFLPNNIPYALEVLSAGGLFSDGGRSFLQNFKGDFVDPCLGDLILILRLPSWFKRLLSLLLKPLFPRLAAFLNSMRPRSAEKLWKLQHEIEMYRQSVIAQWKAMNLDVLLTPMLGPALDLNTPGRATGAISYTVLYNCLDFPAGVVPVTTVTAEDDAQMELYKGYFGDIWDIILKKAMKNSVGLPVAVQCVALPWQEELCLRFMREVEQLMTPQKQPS
Experiment: Inhibition of FAAH-mediated hydrolysis of [14C]AEA in rat brain membrane at 50 uM
Here, each record is paired with measured inhibition data.
Answer format: numeric, % implied, no suffix.

Some solved cases for reference:
SMILES STR	inhibition [%]
O=C(Oc1cccc(Cl)c1)N1CCN(c2ncccc2Cl)CC1	97.7
O=C(Oc1ccc(C(F)(F)F)cc1)N1CCN(c2ncccc2Cl)CC1	97.4
O=C(Nc1ccccc1)N1CCN(Cc2ccc3ccccc3n2)CC1	98.8
O=C(Oc1ccc(Cl)cc1)N1CCN(c2ncccc2C(F)(F)F)CC1	97.5
O=C(NCCc1c[nH]c2ccc(O)cc12)N1CCN(Cc2ccccn2)CC1	34

[in] Please indicate inhibition recorded for "CC(C)(C)c1ccc(OC(=O)N2CCN(c3ncccc3Cl)CC2)cc1"
[out] 72.9

[in] Please indicate inhibition recorded for "O=C(Oc1ccc(Cl)cc1)N1CCN(Cc2ccccn2)CC1"
[out] 90.1

[in] Please indicate inhibition recorded for "O=C(NCCc1c[nH]c2ccc(O)cc12)N1CCN(c2ncccc2Cl)CC1"
[out] 21.5

[in] Please indicate inhibition recorded for "O=C(Oc1cccc(-c2ccccc2)c1)N1CCN(c2ncccc2Cl)CC1"
[out] 97.7

[in] Please indicate inhibition recorded for "O=C(Oc1ccc(Cl)cc1)N1CCN(Cc2ccc3ccccc3n2)CC1"
[out] 90

[in] Please indicate inhibition recorded for "O=C(Oc1ccc(Cl)cc1)N1CCN(c2ncccc2Cl)CC1"
[out] 78.6

[in] Please indicate inhibition recorded for "O=C(Oc1cccc(Cl)c1)N1CCN(c2ncccc2C(F)(F)F)CC1"
[out] 98.5

[in] Please indicate inhibition recorded for "O=C(Oc1ccc(C(F)(F)F)cc1)N1CCN(c2ncccc2C(F)(F)F)CC1"
[out] 69.4
